Just for reference, paper PMC8273886 is where these values come from.

- target.or.test.system: mouse κ-opioid receptor (KOR) tagged with EGFP (mouse, UniProt P33534 1-380)
- Sequence (P33534 whole entry): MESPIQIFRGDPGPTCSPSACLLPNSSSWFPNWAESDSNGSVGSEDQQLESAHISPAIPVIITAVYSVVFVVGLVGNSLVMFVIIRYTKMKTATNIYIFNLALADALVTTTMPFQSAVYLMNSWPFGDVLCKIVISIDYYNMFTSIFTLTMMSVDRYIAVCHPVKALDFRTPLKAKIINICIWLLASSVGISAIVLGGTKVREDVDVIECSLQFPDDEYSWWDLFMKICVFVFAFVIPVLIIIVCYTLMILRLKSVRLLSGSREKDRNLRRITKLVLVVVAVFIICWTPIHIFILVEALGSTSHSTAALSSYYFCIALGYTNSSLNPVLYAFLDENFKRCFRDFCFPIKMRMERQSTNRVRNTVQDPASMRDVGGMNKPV
- assay.remarks: cell-based or functional assay
Bridge positions count the residues as written; N and C are the ends. Square brackets hold non-standard residues; d marks the D form. dNle = CCCC[C@@H](N)C(=O)O
experimental.readout: cAMP inhibition in HEK293 cells stably expressing the mouse KOR, Emax (%)
Give the quantity in %, number only.

I have this binder here, cyclo(CT[dF][dF][dNle][dR]PICFPDGR) (disulfide 1-9 (inferred)) [helianorphin-12] , and I need its recorded cAMP inhibition in HEK293 cells stably expressing the mouse KOR, Emax.
117

Given the entry cyclo(CYGGFLRRIRPKLKCFPDGR) (disulfide 1-15 (inferred)) [helianorphin-1] , report its measured cAMP inhibition in HEK293 cells stably expressing the mouse KOR, Emax.
106

Reported cAMP inhibition in HEK293 cells stably expressing the mouse KOR, Emax, binder cyclo(CTKSIPPICYGGFLRRIRPKLK) (disulfide 1-9 (inferred), source: synthetic peptide (Fmoc chemistry, backbone cyclised, oxidised, RP-HPLC purified)) [helianorphin-2] : ____
102

Need cAMP inhibition in HEK293 cells stably expressing the mouse KOR, Emax, item cyclo(CYGGFLRRCIRPKLK) (disulfide 1-9 (inferred), dyn A 1–13 divided into two fragments (YGGFLRR and IRPKLK) placed in the two loops of the SFTI-1 scaffold; source: synthetic peptide (Fmoc chemistry, backbone cyclised, oxidised, RP-HPLC purified)) [helianorphin-19]
108

State the recorded cAMP inhibition in HEK293 cells stably expressing the mouse KOR, Emax for this entry: cyclo(CTKSIPPICYGGFLRRI) (disulfide 1-9 (inferred), source: synthetic peptide (Fmoc chemistry, backbone cyclised, oxidised, RP-HPLC purified)) [helianorphin-4]
87.8

Name the recorded cAMP inhibition in HEK293 cells stably expressing the mouse KOR, Emax for cyclo(CYGGFLRRICFPDGR) (disulfide 1-10 (inferred), source: synthetic peptide (Fmoc chemistry, backbone cyclised, oxidised, RP-HPLC purified)) [helianorphin-3] .
85.1
